Catalogue of T/C values
test system: C57BL/6 mice, Adenocarcinoma 755 sc, tumor weight T/C; experiment: NCI In Vivo Anticancer Drug Screen. Data for tumor model Adenocarcinoma 755 (subcutaneous) in C57BL/6 mice; details: endpoint: mean tumor weight; dose: 75.0 mg/kg/injection; schedule: Q02DX006 (ip); vehicle: other; higher = larger tumour

// solved cases for T/C follow
1) CC(C)CNC(=S)N/N=C/c1ccccc1 | 70 % of control
2) CCSCCC(N)C(=O)O (centres undefined) | 67 % of control
3) S=c1nc[nH]c2n[nH]nc12 | 14 % of control

Pending molecule:
Fill in the blank: the reported T/C of O=c1[nH]cc(Br)c(=O)[nH]1 is ____. 71 % of control
